Entries and their MDR1-MDCK efflux ratio values follow.
# print the numeric value only

CC1(C)CN(C(=O)C2(C(=O)N3CC(C)(C)C3(C)C)CCC2)C1(C)C ... 2.4
CC(C)Oc1ccc(C2(C(=O)NC3CCS(=O)(=O)CC3)CCCC2)cc1 ... 37.9
C#CCNC(=O)N(Cc1ccccc1F)C1CCOCC1 ... 2.15
Cc1nc(-c2ccc(S(=O)(=O)N(C)C)cc2)cc(C(C)C)n1 ... 0.669
O=c1[nH]c2cnccc2n1Cc1ccccc1 ... 1.55
c1ccc2c(c1)CN(c1cnc3ccccc3n1)CCN2 ... 0.54

The recorded MDR1-MDCK efflux ratio for entry CNC(=O)C1(Cc2ccc(-c3cccnc3)cc2)CCN(Cc2ccccc2Cl)C1 (configuration not stated) equals 0.961

Value of MDR1-MDCK efflux ratio reported for the compound N#Cc1cccc(CNCc2ccccn2)c1 is 0.554

* * *

attribute.measured: fraction unbound, human plasma
Response field accepts a number only; no unit should be typed.

O=C(Nc1ccc(CN2CCCCC2)cc1)c1ccnc2[nH]cnc12 ... 0.586

// field: fraction unbound, human plasma; key: CNc1cc(Nc2cccn(-c3ccccn3)c2=O)nn2c(C(=O)N[C@@H]3C[C@@H]3F)cnc12 ; value = 0.098

According to the records, this molecule NC(=O)C1(Cc2ccc(-c3ccncc3)cc2)CCN(C(=O)Cc2cccc(F)c2)CC1 displays fraction unbound, human plasma of 0.102

Field fraction unbound, human plasma (entry CC(C)(C=C(C#N)C(=O)N1CCC[C@@H](n2nc(-c3ccc(Oc4ccccc4)cc3F)c3c(N)ncnc32)C1)N1CCN(C2COC2)CC1 ) reads 0.0189

Given item Cc1cc(N2CCCC2c2cc(CCC(=O)O)cc(C)n2)ncn1 (centres undefined) , the value recorded as its fraction unbound, human plasma is 1

According to the records, this molecule Cc1ccc(C(=O)N2CCC(Cc3ccccc3-c3ccccc3)(C(=O)N(C)C)CC2)s1 displays fraction unbound, human plasma of 0.00509

* * *

intrinsic clearance, human liver microsomes: recorded values
Answer format: numeric, mL/min/kg implied, no suffix.

C[C@@H](Oc1cc(-c2cnn(C3CCNCC3)c2)cnc1N)c1c(Cl)ccc(F)c1Cl ... 23.2

Data point: CN1CCC[C@@H]1CCO[C@](C)(c1ccccc1)c1ccc(Cl)cc1 ; intrinsic clearance, human liver microsomes = 24.8

The compound listed as c1ccc2nc(NCCn3ccnc3)cnc2c1 shows intrinsic clearance, human liver microsomes equal to 8.75

* * *

# key: entry, value: MDR1-MDCK efflux ratio
Just the number, please, no unit after it.

Recorded MDR1-MDCK efflux ratio (molecule O=C(CN1CCCN(c2ccc(C(F)(F)F)cn2)CC1)Nc1ccccc1F ): 0.671

Please fill in: MDR1-MDCK efflux ratio reported for CCSCc1nc(N)c2ccccc2n1 = 0.681

Given item O=C1N=C(N2CCCCN2)S/C1=C\c1ccc(F)cc1O , the value recorded as its MDR1-MDCK efflux ratio is 1.69

Entry Cc1c(-c2ccccc2)oc2c(C(=O)NCCCN3CCCCC3)cccc2c1=O — recorded MDR1-MDCK efflux ratio = 11

Notebook: C[C@@H]1CN(C(=O)CC(c2ccccc2)c2ccccc2)C[C@H](C)O1 , MDR1-MDCK efflux ratio read as 1.31

Given item Cc1nn(Cc2cccc(Br)c2)c(C)c1C(=O)O , the value recorded as its MDR1-MDCK efflux ratio is 1.58

Quick note, MDR1-MDCK efflux ratio for C[C@H]1CN(Cc2c(Cl)cccc2C(F)(F)F)C[C@@]1(CC(=O)O)C(=O)NC1CCN(CC2=CCCCC2)CC1 landed at 80.8

For this molecule ( CCCCn1nc(-c2ccc(C)o2)nc1CNC ), measured MDR1-MDCK efflux ratio is 1.32

The recorded MDR1-MDCK efflux ratio for entry CCOc1ccc(-c2ccccc2NC(=O)COC)cc1 equals 0.401

Notebook: Cc1cc(C)c2c(c1)CCCN2C(=O)c1ccc(-c2nnc(C)o2)cc1 , MDR1-MDCK efflux ratio read as 0.685

According to the records, this molecule CSc1ncccc1C(=O)Nc1ccc(-c2nnc(C)[nH]2)cc1 displays MDR1-MDCK efflux ratio of 6.96

// field: MDR1-MDCK efflux ratio; key: Nc1cncc(-c2ccc(CN3CCCCC3)cc2)c1 ; value = 0.743

* * *

Catalogue of aqueous solubility values
condition.context: pH 6.8
Answer format: value, then unit.

Recorded aqueous solubility, per entry:
C[C@@H](/C=C\C(F)(F)F)Oc1cc(-c2cc(-c3cc(CN(C)C)cs3)cnc2N)ccc1C(N)=O ... 0.0212 mg/mL
Cc1ccc(-c2noc(CCC(=O)N3CCCC3(C)C)n2)cc1F ... 0.0408 mg/mL
COc1ccc(C(=O)C2CCN(CC(=O)N(Cc3nc4c(c(=O)[nH]3)COCC4)CC3CC3)CC2)cc1 ... 0.0945 mg/mL
CC(C)n1nnnc1-c1ccc(N)cc1F ... 0.0235 mg/mL
Cc1ccc(NC(=O)CN(C)C(=O)c2ccccc2F)nc1 ... 0.054 mg/mL

# compound Cn1c(=O)c2c(nc3n2CCN3Cc2c(F)cccc2Cl)n(C)c1=O ; its aqueous solubility = 0.00517 mg/mL

Entry O=C(NCCc1c[nH]c2cccc(C3(O)CCOCC3)c12)c1cccs1 — recorded aqueous solubility = 0.0655 mg/mL

Notebook: CN(Cc1ccc(Br)o1)C(=O)CN1CCCC1=O , aqueous solubility read as 0.07 mg/mL

Looking up COc1ncccc1CNc1ncnc2c1cnn2C , I found its aqueous solubility recorded as 0.0466 mg/mL

Data point: CC(C)C(=O)Nc1ncc(-c2ccccc2)s1 ; aqueous solubility = 0.00055 mg/mL

compound Cc1cc(NC(=O)N2Cc3cc4c(cc3C3(CCCC3)C2)OCCO4)no1 , aqueous solubility observed: 0.0003 mg/mL

* * *

Form field: intrinsic clearance, human liver microsomes (one value per entry).
Numbers only here, please. The scale is mL/min/kg.

Sample records with intrinsic clearance, human liver microsomes:
Cc1cc(Nc2nnc(C)s2)cc(C2CN(C(=O)c3c(C(C)C)noc3C)CCO2)n1 (stereo unspecified) ... 22.5
Cc1ccn(-c2ccc(NCC3CC3)nn2)n1 ... 11

Consider the record given below.
# intrinsic clearance, human liver microsomes (compound: O=C(c1nccc2ccccc12)N1CCC(COc2ccccn2)CC1 ) is 42.1

* * *

condition.context: pH 6.8
attribute.measured: aqueous solubility (µg/mL)
// units = µg/mL; emit number, no label

Recorded results for 3 compounds are shown here.
Cc1ccccc1-n1c(CC2CCN(C(=O)C3CC3)CC2)n[nH]c1=O ... 48
COc1ccc(S(=O)(=O)N2CCC(N3CCC(C)CC3)CC2)cc1 ... 56.4
c1ccc(CNc2nn3nnnc3c3ccccc23)cc1 ... 0.1

Lab note: measured aqueous solubility of CN(Cc1c(F)cccc1Cl)C(=O)c1ccc(-n2ccnc2)nc1 was 54.1

The compound identified as NC(=O)Cn1c2ccccc2c2nc3ccccc3nc21 registered its aqueous solubility at 0.15

// CCc1nnc2n1CCN(C(=O)c1ccccc1Oc1cccnc1)C2 : aqueous solubility value = 43.4

* * *

attribute.measured: intrinsic clearance, rat liver microsomes (mL/min/kg)
I only need the number, in mL/min/kg, no unit after it.

Use these answered entries as a reference point.
COc1ccc(CC(=O)N2CCc3[nH]c4ccc(Cl)cc4c3C2)cc1OC ... 675
Cn1ccc2c(NC(=O)N3CCCN(C(=O)Oc4ccccc4)CC3)cccc21 ... 777
Cc1ccc(Cn2nc(C)c(C(N)=O)c2Cl)cc1 ... 358
CCC(=O)Nc1cccc(Oc2nc(Nc3ccc(N4CCN(C)CC4)cc3OC)ncc2Cl)c1 ... 238
COc1ccc(=O)n(Cc2noc3c2CCCC3)n1 ... 270
O=C(NC[C@H]1CCN(c2ccccc2)C1)N1CCc2sccc2C1 ... 2510

Please fill in: intrinsic clearance, rat liver microsomes reported for CN(C(=O)[C@@H](N)Cc1ccccc1)c1ccccc1 = 392

Given item O=C(Nc1cc(Cl)ccc1Cl)c1cccc(N2CCCC2=O)c1 , the value recorded as its intrinsic clearance, rat liver microsomes is 969

Lookup result for O=C(CN1CCCC(c2ccc3cn[nH]c3n2)C1)N1CCCC1 (centres undefined) ; measured intrinsic clearance, rat liver microsomes: 337

response.value for COc1cccc(CN2CCc3nc(-c4cnc(C)cn4)nc(O)c3C2)c1 (field: intrinsic clearance, rat liver microsomes) = 38.2

* * *

Please use 1 for MDR1-MDCK efflux ratio under 0.9 and 0 for everything else, ties included.

Consider the worked cases shown below.
COc1cc(Br)c2c(=O)[nH]c(C)nc2c1 ... 1
CC(C(=O)N1CCc2sccc2C1)N1CCCN(c2ccccc2C#N)CC1 (stereo unspecified) ... 1
CC(C)c1cc(CN(C)Cc2c[nH]nc2-c2ccc(F)cc2)no1 ... 0

is_below(MDR1-MDCK efflux ratio, 0.9) for C[C@@H](NC(=O)c1cc(Br)c2c(c1)OCCO2)c1cn(-c2ccccc2)nn1 ?
0

Could you please tell me whether MDR1-MDCK efflux ratio recorded for Cc1cc(NC(=O)[C@H](C)N(C)C)c2ccccc2n1 is less than 0.9?
1

Given Cc1ccc(S(=O)(=O)N2CCC(c3nnc(-c4cccnc4)o3)C2)cc1 (stereo unspecified) , is recorded MDR1-MDCK efflux ratio strictly lower than 0.9?
0
